- system-under-test: Serine/threonine-protein kinase B-raf (Homo sapiens, UniProt P15056, V600E)
- Sequence (P15056 2-766 V600E limits assumed): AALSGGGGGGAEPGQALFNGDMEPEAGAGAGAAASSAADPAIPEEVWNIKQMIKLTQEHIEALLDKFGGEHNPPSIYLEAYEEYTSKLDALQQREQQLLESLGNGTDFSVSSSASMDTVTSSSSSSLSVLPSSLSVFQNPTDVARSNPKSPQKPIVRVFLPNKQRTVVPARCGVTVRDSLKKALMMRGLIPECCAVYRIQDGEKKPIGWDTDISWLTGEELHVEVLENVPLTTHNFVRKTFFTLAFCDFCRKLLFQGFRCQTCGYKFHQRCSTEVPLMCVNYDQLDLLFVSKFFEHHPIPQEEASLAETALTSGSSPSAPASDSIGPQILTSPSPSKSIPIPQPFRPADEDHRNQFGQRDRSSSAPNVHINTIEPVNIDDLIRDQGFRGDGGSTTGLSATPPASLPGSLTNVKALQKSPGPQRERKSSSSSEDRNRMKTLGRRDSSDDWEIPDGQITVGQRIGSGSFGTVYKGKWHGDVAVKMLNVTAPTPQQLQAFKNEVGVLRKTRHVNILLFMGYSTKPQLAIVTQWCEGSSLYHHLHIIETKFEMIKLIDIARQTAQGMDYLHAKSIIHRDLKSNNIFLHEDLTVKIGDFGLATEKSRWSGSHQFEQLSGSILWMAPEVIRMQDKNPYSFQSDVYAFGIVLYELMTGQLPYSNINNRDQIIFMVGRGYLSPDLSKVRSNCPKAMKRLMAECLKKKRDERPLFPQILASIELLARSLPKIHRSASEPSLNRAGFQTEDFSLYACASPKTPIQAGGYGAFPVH
- test-method-notes: Inhibition of B-Raf V600E mutant
property-measured: IC50 (nM)

a. Cc1ccc(-n2nc(C(C)(C)C)cc2NC(=O)Nc2ccc(Oc3ccnc4[nH]c(S)nc34)cc2F)cc1
b. Nc1nc2nccc(Oc3ccc(NC(=O)Nc4cc(C(F)(F)F)ccc4F)c(F)c3)c2[nH]c1=O
c. CN1CCN(c2cnc3c(Oc4ccc(NC(=O)Nc5cc(C(F)(F)F)ccc5F)c(F)c4)ccnc3n2)CC1
q: Order the 3 listed items from lowest to highest according to IC50. Quick reminder: the answer is the labels in the order asked.
a: c, b, a
(c: 110 nM, b: 168 nM, a: 310 nM)

----------
- system-under-test: Serine/threonine-protein kinase B-raf (Homo sapiens, UniProt P15056, V600E)
- test-method-notes: Inhibition of BRAF V600E mutant-mediated ERK phosphorylation in human WM266.4 cells
- Type: cell-based
property-measured: IC50 (nM)

Some compounds with known IC50 results, for comparison:
{"columns": ["smiles-input", "IC50, nM"],
 "data": [
  ["Cc1nc2nccc(Oc3ccc(NC(=O)Nc4cc(C(C)(C)C)nn4-c4ccccc4)c(F)c3)c2[nH]c1=O", 390],
  ["Cc1nc2nccc(Oc3ccc(NC(=O)Nc4cc(C(F)(F)F)ccc4F)c4ccccc34)c2[nH]c1=O", 3400],
  ["Nc1nc2c(Oc3ccc(NC(=O)Nc4cc(C(F)(F)F)ccc4F)c4ccccc34)ccnc2[nH]c1=O", 49],
  ["O=C(Nc1ccc(Cl)c(C(F)(F)F)c1)Nc1ccc(Oc2ccnc3ncc(=O)[nH]c23)cc1F", 16000],
  ["CN(C)c1nc2c(Oc3ccc(NC(=O)Nc4cc(C(F)(F)F)ccc4F)c(F)c3)ccnc2[nH]1", 6000],
  ["Cc1ccc(-n2nc(C(C)(C)C)cc2NC(=O)Nc2ccc(Oc3ccnc4[nH]nnc34)cc2F)cc1", 3100]
]}

a. O=C(Nc1ccc(Oc2ccnc3[nH]c(=O)c(=O)[nH]c23)cc1)Nc1ccc(Cl)c(C(F)(F)F)c1
b. CC(C)(C)c1cc(NC(=O)Nc2ccc(Oc3ccnc4[nH]c(=O)c(N)nc34)c3ccccc23)n(-c2ccccc2)n1
c. Cc1ccc(-n2nc(C(C)(C)C)cc2NC(=O)Nc2ccc(Oc3ccnc4nc(N5CCOCC5)cnc34)cc2F)cc1
d. Nc1nc2nccc(Oc3ccc(NC(=O)Nc4cc(C(F)(F)F)ccc4F)c(F)c3)c2[nH]c1=O
q: Hello, I need these entries ordered by IC50, highest reading first. Thanks! The labels, placed in the requested order, form the answer.
a: d, a, c, b
(d: 9900 nM, a: 5200 nM, c: 280 nM, b: 7 nM)

----------
- system-under-test: Serine/threonine-protein kinase B-raf (Homo sapiens, UniProt P15056, V600E)
- test-method-notes: Inhibition of BRAF V600E mutant-mediated ERK phosphorylation in human WM266.4 cells
- Type: cell-based
property-measured: IC50 (nM)

Example compounds with recorded IC50:
{"columns": ["smiles-input", "quantitative-result"],
 "data": [
  ["Cc1ccc(-n2nc(C(C)(C)C)cc2NC(=O)Nc2ccc(Oc3ccnc4ncc(=O)[nH]c34)cc2)cc1", 634],
  ["CSc1cc(Oc2ccnc3[nH]c(=O)c(C)nc23)ccc1NC(=O)Nc1cc(C(C)(C)C)nn1-c1ccccc1", 3],
  ["Cc1ccc(-n2nc(C(C)(C)C)cc2NC(=O)Nc2ccc(Oc3ccnc4[nH]c(=O)c(N)nc34)c3ccccc23)cc1", 7],
  ["Cn1nc(C(C)(C)C)cc1NC(=O)Nc1ccc(Oc2ccnc3[nH]c(=O)cnc23)cc1F", 620],
  ["CN(C)c1cnc2c(Oc3ccc(NC(=O)Nc4cc(C(F)(F)F)ccc4F)c(F)c3)ccnc2n1", 20000],
  ["CSc1cc(Oc2ccnc3ncc(=O)[nH]c23)ccc1NC(=O)Nc1cc(C(F)(F)F)ccc1F", 6600]
]}

1. Cc1nc2c(Oc3cccc(NC(=O)c4cccc(C(C)(C)C)c4)c3)ccnc2[nH]c1=O
2. Cc1ccc(-n2nc(C(C)(C)C)cc2NC(=O)Nc2cccc(Oc3ccnc4[nH]c(=O)c(C)nc34)c2)cc1
3. O=C(Nc1ccc(Oc2ccnc3ncc(=O)[nH]c23)cc1F)Nc1cc(C(F)(F)F)ccc1F
q: Let's sort these by IC50, smallest first. Go ahead? Your reply should list the labels following the order given in the request.
a: 2, 1, 3
(2: 69 nM, 1: 1430 nM, 3: 69000 nM)

A. Cc1ccc(-n2nc(C(C)(C)C)cc2NC(=O)Nc2ccc(Oc3ccnc4[nH]c(=O)c(=O)[nH]c34)cc2F)cc1
B. Cc1nc2c(Oc3ccc(NC(=O)Nc4cc(C(F)(F)F)ccc4F)c(F)c3)ccnc2[nH]c1=O
q: Lower value for measured IC50? Options: A , B Reply briefly: the label of your chosen item.
a: A
(A: 75 nM, B: 590 nM)

1. O=C(Nc1ccc(Oc2ccnc3[nH]c(S)nc23)cc1F)Nc1cc(C(F)(F)F)ccc1F
2. O=C(Nc1ccc(Oc2ccnc3[nH]c(=O)cnc23)cc1F)Nc1cc(C(F)(F)F)ccc1F
q: Which record shows the lower IC50: the first, 1 , or the second, 2 ? Write down the label of the entry you select.
a: 2

----------
- system-under-test: Serine/threonine-protein kinase B-raf (Homo sapiens, UniProt P15056, V600E)
- test-method-notes: Inhibition of BRAF V600E mutant-mediated ERK phosphorylation in human WM266.4 cells
- Type: cell-based
property-measured: IC50

Before answering, review these 2 worked examples.
{"columns": ["smiles-input", "IC50"],
 "data": [
  ["O=C(Nc1cccc(Oc2ccnc3ncc(=O)[nH]c23)c1)Nc1cc(C(F)(F)F)ccc1F", "> 100 µM"],
  ["CSc1cc(Oc2ccnc3[nH]c(=O)c(C)nc23)ccc1NC(=O)Nc1cc(C(F)(F)F)ccc1F", "0.097 µM"]
]}

Let us examine a further case.
q: What value of IC50 on Serine/threonine-protein kinase B-raf (Homo sapiens, UniProt P15056, V600E) does `O=C(Nc1ccc(Oc2ccnc3ncc(=O)[nH]c23)cc1)Nc1ccc(Cl)c(C(F)(F)F)c1` have?
a: > 100 µM

These measurements were taken from ChEMBL document CHEMBL1212820.
